assayComment: Half-life of 10% mouse kidney homogenate is tested
Format: ADME
testSettings: 10% mouse kidney homogenate
measurementType: half-life (min)

>  <compound>
CC(=O)N/C=C/SC1=C(C(=O)[O-])N2C(=O)[C@@H](C(C)O)[C@H]2C1.[Na+] (some centres undefined)

>  <measurementType>
half-life

>  <val>
12

$$$$
>  <compound>
CC(=O)N/C=C\SC1=C(C(=O)[O-])N2C(=O)[C@@H](C(C)(C)OS(=O)(=O)[O-])[C@H]2C1.[Na+].[Na+]

>  <measurementType>
half-life

>  <val>
19

$$$$
>  <compound>
CC(=O)N/C=C/SC1=C(C(=O)[O-])N2C(=O)[C@@H](C(C)(C)O)[C@H]2C1.[Na+]

>  <measurementType>
half-life

>  <val>
8

$$$$

P: CC(=O)N/C=C/SC1=C(C(=O)[O-])N2C(=O)[C@@H](C(C)OS(=O)(=O)[O-])[C@H]2C1.[Na+].[Na+] (some centres undefined)
Q: CC(=O)N/C=C/[S+]([O-])C1=C(C(=O)[O-])N2C(=O)[C@@H](C(C)(C)OS(=O)(=O)[O-])[C@H]2C1.[Na+].[Na+] (some centres undefined)
Could you tell me which of these two has the smaller half-life figure? First: P Second: Q # reply format: chosen label
P

====

Tested on: Proteus vulgaris
assayComment: Minimum inhibitory concentration against Proteus vulgaris GN4815 on cefotiam at a concentration of 0.1 ug/mL into the agar plate
measurementType: MIC (µg/mL)

1: CC(=O)N/C=C\SC1=C(C(=O)[O-])N2C(=O)[C@@H](C(C)(C)O)[C@H]2C1.[Na+]
2: CC(=O)N/C=C\[S+]([O-])C1=C(C(=O)[O-])N2C(=O)[C@@H](C(C)OS(=O)(=O)[O-])[C@H]2C1.[Na+].[Na+] (stereo partly specified)
3: CC(=O)N/C=C\SC1=C(C(=O)[O-])N2C(=O)[C@@H](C(C)(C)OS(=O)(=O)[O-])[C@H]2C1.[Na+].[Na+]
4: CC(=O)N/C=C\[S+]([O-])C1=C(C(=O)[O-])N2C(=O)[C@@H](C(C)(C)OS(=O)(=O)[O-])[C@H]2C1.[Na+].[Na+] (stereo partly specified)
Reorder the list above by recorded MIC in ascending order. The labels, placed in the requested order, form the answer.
4, 3, 1, 2

====

System: Serratia marcescens
assayComment: beta-lactamase inhibitory activity of the 5,6-cis-carbapenem antibiotic on cephalosporinase against Serratia marcescens TN81
Type: functional, organism-based, serratia marcesc
testSettings: Serratia marcescens; read-out: I50
measurementType: IC50 (ng/mL)

>  <compound>
CC(=O)N/C=C/[S+]([O-])C1=C(C(=O)[O-])N2C(=O)[C@@H](C(C)(C)O)[C@H]2C1.[Na+] (stereo in doubt; 20)

>  <IC50, ng/mL>
0.78

$$$$

P: CC(=O)[N-]/C=C/SC1=C(C(=O)[O-])N2C(=O)[C@@H](C(C)O)[C@H]2C1.[Na+].[Na+] (some centres undefined)
Q: CC(=O)N/C=C\SC1=C(C(=O)[O-])N2C(=O)[C@@H](C(C)(C)OS(=O)(=O)[O-])[C@H]2C1.[Na+].[Na+]
R: CC(=O)N/C=C\[S+]([O-])C1=C(C(=O)[O-])N2C(=O)[C@@H](C(C)O)[C@H]2C1.[Na+] (some centres undefined)
Arrange items by their IC50 values in increasing order. The labels, placed in the requested order, form the answer.
R, P, Q
(R: 0.29 ng/mL, P: 1.1 ng/mL, Q: 51 ng/mL)

====

Test system: Serratia marcescens
assayComment: beta-lactamase inhibitory activity of the 5,6-cis-carbapenem antibiotic on cephalosporinase against Serratia marcescens TN81
Format: functional, organism-based, serratia marcesc
testSettings: Serratia marcescens; read-out: I50
measurementType: IC50 (ng/mL)

a: CC(=O)N/C=C\[S+]([O-])C1=C(C(=O)[O-])N2C(=O)[C@@H](C(C)(C)OS(=O)(=O)[O-])[C@H]2C1.[Na+].[Na+] (some centres undefined)
b: CC(=O)N/C=C\SC1=C(C(=O)[O-])N2C(=O)[C@@H](C(C)OS(=O)(=O)[O-])[C@H]2C1.[Na+].[Na+] (some centres undefined)
From the recorded data, which exceeds the other in IC50: a or b ? # reply format: chosen label
a

P: CC(=O)N/C=C\[S+]([O-])C1=C(C(=O)[O-])N2C(=O)[C@@H](C(C)OS(=O)(=O)[O-])[C@H]2C1.[Na+].[Na+] (some centres undefined)
Q: CC(=O)N/C=C\SC1=C(C(=O)[O-])N2C(=O)[C@@H](C(C)(C)O)[C@H]2C1.[Na+]
From the recorded data, which exceeds the other in IC50: P or Q ? # reply format: chosen label
Q
(Q: 5.3 ng/mL, P: 0.34 ng/mL)

====

assayComment: Half-life of 10% mouse kidney homogenate is tested
Type: ADME
testSettings: 10% mouse kidney homogenate
measurementType: half-life (min)

Study these solved cases before continuing.
>  <compound>
CC(=O)N/C=C\SC1=C(C(=O)[O-])N2C(=O)[C@@H](C(C)OS(=O)(=O)[O-])[C@H]2C1.[Na+].[Na+] (some centres undefined)

>  <unitString>
min

>  <half-life>
42

$$$$
>  <compound>
CC(=O)[N-]/C=C/SC1=C(C(=O)[O-])N2C(=O)[C@@H](C(C)O)[C@H]2C1.[Na+].[Na+] (some centres undefined)

>  <unitString>
min

>  <half-life>
40

$$$$

A: CC(=O)N/C=C/SC1=C(C(=O)[O-])N2C(=O)[C@@H](C(C)(C)OS(=O)(=O)[O-])[C@H]2C1.[Na+].[Na+]
B: CC(=O)N/C=C\SC1=C(C(=O)[O-])N2C(=O)[C@@H](C(C)(C)O)[C@H]2C1.[Na+]
From the recorded data, which exceeds the other in half-life: A or B ? # reply format: chosen label
B
(B: 19 min, A: 7 min)

Origin of measurements: ChEMBL document CHEMBL1122333
